- System: Candida albicans ATCC-10259
- assayProcedure: Minimum inhibitory concentration (MIC), dilution method in SAAMF medium, 35° C. for 2 days
- Type: cell-based
- condition: ATCC10259, 48 h; Candida albicans ATCC 10259; SAAMF medium; 35° C., 2 days; read-out: Minimum inhibitory concentration (MIC), C.a.

compound	MIC
C=C1CCCN([C@H](C)[C@](O)(Cn2cncn2)c2ccc(F)cc2F)C1	0.1 µg/mL
C=C1CCN([C@H](C)[C@](O)(Cn2cncn2)c2ccc(F)cc2F)CC1 (racemic) [Example 2]	< 0.025 µg/mL
CC=C1CCN([C@H](C)[C@](O)(Cn2cncn2)c2ccc(F)cc2F)CC1 (racemic)	< 0.025 µg/mL
C=CC=C1CCN([C@H](C)[C@](O)(Cn2cncn2)c2ccc(F)cc2F)CC1	< 0.025 µg/mL
